Assay: Inhibition of HDLP
Field: Ki. Provide a value for each of the molecules that follow.
Write it as a number; the unit nM goes unstated.

Input `C[C@H](O)C(=O)CCCCC[C@@H]1NC(=O)[C@@H]2CCCN2C(=O)[C@H](Cc2ccccc2)NC(=O)C(C)(C)NC1=O` , output reported Ki. 52.8

Input `C[C@H](O)C(=O)CCCCC[C@@H]1NC(=O)[C@@H]2CCCN2C(=O)[C@H](Cc2ccccc2)NC(=O)[C@H](Cc2ccc(Cl)cc2)NC1=O` , output reported Ki. 23.4

Input `C[C@@H](O)C(=O)CCCCC[C@@H]1NC(=O)[C@H]2CCCN2C(=O)[C@H](Cc2ccccc2)NC(=O)C(C)(C)NC1=O` , output reported Ki. 16.4

Input `C[C@@H](O)C(=O)CCCCC[C@@H]1NC(=O)[C@@H]2CCCN2C(=O)[C@H](Cc2ccccc2)NC(=O)[C@H](Cc2ccccc2)NC1=O` , output reported Ki. 82.1

Input `CC[C@]1(C)NC(=O)[C@H](CCCCCC(=O)[C@@H](C)O)NC(=O)[C@H]2CCCN2C(=O)[C@H](Cc2ccccc2)NC1=O` , output reported Ki. 18.6

Input `CC[C@]1(C)NC(=O)[C@H](CCCCCC(=O)[C@@H](C)O)NC(=O)[C@@H]2CCCN2C(=O)[C@H](Cc2ccccc2)NC1=O` , output reported Ki. 12.7
